assay: head-to-tail lactamisation of side-chain-protected linear peptides, PyBOP (2 equiv), DIPEA (3 equiv, added dropwise), overnight at rt under N2; then TFA global deprotection and prep RP-HPLC; settings: the molecule shown is the open-chain precursor; 15-membered ring; DMF; 1.0 mM; 25.0 °C; 2 steps
reported.property: ring closure, yield over several steps
State the value with its unit after it.

{"query.smiles": "Cc1c(C)c(S(=O)(=O)NC(=N)NCCC[C@H](NC(=O)CN)C(=O)N[C@H](C(=O)N[C@@H](CCCCNC(=O)OC(C)(C)C)C(=O)N[C@@H](C)C(=O)O)C(C)C)c(C)c2c1OC(C)(C)C2", "result": "63%"}
{"query.smiles": "CC(C)[C@H](NC(=O)CN)C(=O)N[C@@H](CCCCNC(=O)OC(C)(C)C)C(=O)N[C@@H](Cc1ccc(OC(C)(C)C)cc1)C(=O)N[C@@H](C)C(=O)O", "result": "68%"}
{"query.smiles": "Cc1c(C)c(S(=O)(=O)NC(=N)NCCC[C@H](NC(=O)[C@H](Cc2ccc(OC(C)(C)C)cc2)NC(=O)CN)C(=O)N[C@@H](Cc2ccccc2)C(=O)N[C@@H](COC(C)(C)C)C(=O)O)c(C)c2c1OC(C)(C)C2", "result": "64%"}

Please examine the following record next.
Data point: CC(C)[C@H](NC(=O)CN)C(=O)N[C@@H](C)C(=O)N[C@@H](Cc1cn(C(=O)OC(C)(C)C)c2ccccc12)C(=O)N[C@@H](C)C(=O)O ; ring closure, yield over several steps = 48%
